- Target Under Test: thrombin receptor (PAR-1) (Homo sapiens)
- Construct: CHRF membranes (Jones, Biochim. Biophys. Acta 1992, 1136, 272) are thawed from −70° C; endogenous in cells
- Sequence (P25116 22-425): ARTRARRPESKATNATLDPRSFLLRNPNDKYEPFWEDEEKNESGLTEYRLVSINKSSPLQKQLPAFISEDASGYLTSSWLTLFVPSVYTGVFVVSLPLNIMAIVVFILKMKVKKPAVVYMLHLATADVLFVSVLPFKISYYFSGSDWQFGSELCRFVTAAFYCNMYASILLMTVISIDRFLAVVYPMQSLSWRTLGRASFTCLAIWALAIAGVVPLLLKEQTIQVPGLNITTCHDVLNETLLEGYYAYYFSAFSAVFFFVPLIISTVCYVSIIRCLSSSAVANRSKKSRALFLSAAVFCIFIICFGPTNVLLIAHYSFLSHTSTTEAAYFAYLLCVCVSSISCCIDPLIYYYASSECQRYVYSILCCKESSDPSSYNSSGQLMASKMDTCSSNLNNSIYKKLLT
- Experiment Description: In vitro thrombin receptor binding assay (CHRF membranes)
- Condition Parameters: tritiated 721-40 radioligand, read-out: Bndg IC50 (Thrombin receptor binding)
As shown below, each of these compounds has a reported log10(IC50) value.
Quantity: log10(IC50) (log10 of the value in nM)

[[record]]
smiles_string = "CSCC[C@H](NC(=O)[C@H](Cc1ccc(F)c(F)c1)NC(=O)Nc1ccc2c(CN3CCCC3)cn(Cc3c(Cl)cccc3Cl)c2c1)C(=O)NCc1ccccc1"
value_reported = 4.05

[[record]]
smiles_string = "NCC[C@H](NC(=O)[C@H](Cc1cccnc1)NC(=O)Nc1ccc2c(CN3CCCC3)cn(Cc3c(Cl)cccc3Cl)c2c1)C(=O)NCc1ccccc1"
value_reported = 3.68

[[record]]
smiles_string = "COc1ccc(CNC(=O)[C@H](CCCNC(=N)N)NC(=O)[C@H](Cc2ccc(F)c(F)c2)NC(=O)Nc2ccc3c(CN4CCCC4)cn(Cc4c(Cl)cccc4Cl)c3c2)cc1"
value_reported = 2.48

[[record]]
smiles_string = "NC(=O)CC[C@H](NC(=O)[C@H](Cc1ccc(F)c(F)c1)NC(=O)Nc1ccc2c(CN3CCCC3)cn(Cc3c(Cl)cccc3Cl)c2c1)C(=O)NCc1ccccc1"
value_reported = 3.08

[[record]]
smiles_string = "NCC[C@H](NC(=O)[C@H](Cc1ccc(F)c(F)c1)NC(=O)Nc1ccc2c(CN3CCCC3)cn(Cc3c(Cl)cccc3Cl)c2c1)C(=O)NCc1ccccc1"
value_reported = 2.70

